Assay method text: NCI Yeast Anticancer Drug Screen. Data for the mlh1 rad18 strain (AID 175)
Details: S. cerevisiae mlh1 rad18 strain growth inhibition; at 50.0 µM; stronger effect = higher value
This is part of a sample that, as a whole, favours compounds with a hit. Of some 79,000 tested, about 15% had one in any assay.
Measured endpoint: growth inhibition (%)
Answers are plain numbers, in %.

A selection of reference data follows.
CCN(CC)C(=O)C(C)=O
12.9
CC(=O)NC(C)(CO)C(=O)O (centres undefined)
14.1
CC1=C(C)C(=O)C=CC1=O
12

Kindly give each listed record's growth inhibition.
1. CN1CCN(CCCBr)CC1
2. OCC1NCCCC1O (centres undefined)
3. O=[N+]([O-])c1cc(F)ccc1-c1ccc(F)cc1
4. CS(=O)c1ccc(C(F)(F)F)cc1C(=O)O (centres undefined)

Result ::
-4.3
-10
20.4
9.85

Hi team, please reply with growth inhibition for each item in this list.
1. CCNS(=O)(=O)c1ccccc1
2. CC(C)Cc1[nH]nc2c1C(=O)C(Nc1ccccc1)=CC2=O
3. COC(=O)c1nc(N)nc(C(=O)OC)c1C(=O)c1cccc([N+](=O)[O-])c1
4. Clc1ccc(/C=C/c2nc3ccccc3s2)cc1Cl
5. CC(C)=CCC/C(C)=C\COC=O

Result ::
1: 14.7; 2: 23.4; 3: -16.8; 4: -16.2; 5: 50.9

Look at each molecule and report its growth inhibition.
1. COC(=O)c1cnc2nc(N3CCOCC3)[nH]n2c1=O
2. CSCCNC(=O)CS(=O)(=O)c1ccc(C)cc1
3. CC(C)(NC(=O)c1cc(Cl)c2ccccc2c1O)C(=O)O

Result ::
1: -10.5; 2: 17.4; 3: 17.7

###

Assay method text: NCI Yeast Anticancer Drug Screen. Data for the cln2 rad14 strain (AID 165);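 further: 0% = growth equal to vehicle treated cultures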
Details: S. cerevisiae cln2 rad14 strain, at 50.0 µM
About 79,000 compounds went through this panel and 15% of them were active in at least one assay; those are over-represented in the sample as a whole. The source made the active and inactive calls. No stated cut-off is given here; in the data, active means growth inhibition above about 70%; inactive means the rest.
Your reply should match one of these outcome classes. class 1 = active, class 0 = inactive

Cc1ccc(NC(=O)c2ccc(Cl)cc2)cc1Cl
class 0
COc1ccc2c(c1)C(=O)OCCC2
class 0
O=c1cccc(CCc2ccccc2)[nH]1
class 0

Query :: Hey, what did the test say about O=C(O)CSc1nc2ccc(N3C(=O)C4C5C=CC(C5)C4C3=O)cc2s1 (centres undefined) ?
Result :: class 0

Query :: For CCC(O)(C#CCl)CC , which call appears in the assay record?
Result :: class 0

Query :: In this assay, the call recorded for O=C(Nc1ccc(F)cc1)Nc1ccc(I)cc1 was what?
Result :: class 0

###

Assay method text: NCI Yeast Anticancer Drug Screen. Data for the cln2 rad14 strain (AID 165);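 further: 0% = growth equal to vehicle treated cultures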
Details: S. cerevisiae cln2 rad14 strain, at 50.0 µM, stronger effect = higher value
Compounds without any hit were thinned out: in the full panel of roughly 79,000, 15% have a hit.
For each record, write down the corresponding growth inhibition.
Answers are plain numbers, in %.

Cc1ccc(/C(C#N)=C/c2cccc([N+](=O)[O-])c2)cc1
24.4
C=C(CN(C)C)C1(c2ccccc2)CC2(CCCC2)C(=O)O1 (stereo not drawn)
-4.75
CC(=O)Nc1cc([N+](=O)[O-])ccc1CC(O)c1ccccc1 (stereo not drawn)
-15.5
CC(O)CN1CCCC1 (stereo not drawn)
6.2

Dear reader, for each entry below, please note its growth inhibition.
1. CC1(C)CC(=O)C2=C(C1)NC(SSC1=C(C#N)C(c3ccc(F)cc3)C3=C(CC(C)(C)CC3=O)N1)=C(C#N)C2c1ccc(F)cc1 (stereo not drawn)
2. Clc1ccccc1C(N1CCCCC1)C(Cl)(Cl)Cl (stereo not drawn)
3. C=C(C)C(=O)OCCCCC
4. CCOC(=O)c1cc(NC(C)=O)c(C)n1C

Result ::
1. 55.5
2. 18
3. 6.65
4. -26.6

###

Assay method text: NCI Yeast Anticancer Drug Screen. Data for the sgs1 mgt1 strain (AID 161);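 further: 0% = growth of cultures given vehicle only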
Details: S. cerevisiae sgs1 mgt1 strain, at 50.0 µM, stronger effect = higher value
Method: Growth inhibition of yeast strains with defined genetic alterations is measured as a screen for potential anti-cancer activity. Selected strains with alterations in DNA damage repair or cell cycle control were exposed to compounds and growth inhibition was measured relative to vehicle treated controls. The strain used in this assay is sgs1 mgt1
Compounds without any hit were thinned out: in the full panel of roughly 79,000, 15% have a hit.
Measured endpoint: growth inhibition (%)
One number for each entry, in %.

Solved cases (3 shown):
CC12CCC(C(Br)C1=O)C2(C)CBr (centres undefined)
20.4
O=C(O)c1ccc(N2CCOCC2)cc1
-15.4
BrCC(Br)c1ccc(C(Br)CBr)cc1 (centres undefined)
25.1

For the next question, use this compound.
Query :: So what does the record say about growth inhibition for S=C(S)NCCCn1ccnc1 ?
Result :: -14.8

###

Assay method text: NCI Yeast Anticancer Drug Screen. Data for the cln2 rad14 strain (AID 165);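 further: 0% = growth equal to vehicle treated cultures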
Details: S. cerevisiae cln2 rad14 strain, at 50.0 µM, stronger effect = higher value
About 79,000 compounds went through this panel and 15% of them were active in at least one assay; those are over-represented in the sample as a whole.
For each of the compounds below, state its growth inhibition.
Give bare numbers, in %.

O=C1/C(=C/c2ccccc2)Oc2cc(O)ccc21
30.4

Give growth inhibition for each listed item.
1. Cc1cccc(N=C2NC(=O)C(CC(=O)Nc3ccc(Cl)cc3C)S2)c1 (configuration not stated)
2. N#CC(c1ccccc1)C(c1ccccc1)c1cccc2ccccc12 (configuration not stated)
3. CCCCCCCCCCCCCCCCCC(=O)OCC(COC1OC(CS(=O)(=O)O)C(O)C(O)C1O)OC(=O)CCCCCCCCCCCCCCCCC (configuration not stated)
4. CCC(C)CN1C(=O)NC(C)(Cc2ccccc2)C1=O (configuration not stated)
5. CSSC(SC)SC

Result ::
3.55
-6.85
3.25
16.8
-21.1

Provide the reported growth inhibition of each entry below, same order.
1. CCC1CN2CCc3cc(OC)c(OC)cc3C2CC1CCCl (configuration not stated)
2. Cc1ccccc1N=Cc1ccc(N(CCC#N)S(=O)(=O)c2ccccc2)cc1

Result ::
1: -9.7; 2: 18.7

# return growth inhibition for each item in the list
1. S=C(NCc1ccco1)Nc1ccccc1Cl
2. COc1cc2nc(C(O)C(O)c3nc4cc(OC)c(OC)cc4[nH]3)[nH]c2cc1OC (configuration not stated)
3. COC1CC(N=[N+]=[N-])C(OS(C)(=O)=O)C(C)O1 (configuration not stated)
4. O=C(OCc1ccccc1)/C(c1ccccc1)=[N+]1/C(=S)Nc2ccc([N+](=O)[O-])cc21
5. CCCCCCCC/C=C\CCCCCCCCOC(=O)CC(O)C(=O)OCCCCCCCC/C=C\CCCCCCCC (configuration not stated)
6. NC(=O)c1ccc2c(ccc3ccccc32)c1
7. COc1ccc2nc3cc([N+](=O)[O-])ccc3c(Nc3ccc(S(=O)(=O)NC(C)=O)cc3)c2c1
8. CCCCCCCCCCCCOc1ccccn1

Result ::
1: 4.5; 2: 6.85; 3: 3.7; 4: 3.8; 5: -22.9; 6: -36; 7: 36; 8: -7.45

###

Assay method text: NCI Yeast Anticancer Drug Screen. Data for the mlh1 rad18 strain (AID 175)
Details: S. cerevisiae mlh1 rad18 strain growth inhibition; at 50.0 µM
Compounds without any hit were thinned out: in the full panel of roughly 79,000, 15% have a hit. Active and inactive are the calls of the source. Rule as the data show it: active = growth inhibition above about 70%; inactive = the rest.
The reply should be one of these categories: label 1 for active, label 0 for inactive

// below: answered compounds
O=[N+]([O-])CC1=CCCCC1
label 0
Cc1ccc(S(=O)(=O)OC2C3OC(C)(C)OC3OC2C2CSC(=S)S2)cc1 (centres undefined)
label 0
CC(CCOCC1CO1)OCC1CO1 (centres undefined)
label 0
O=C1CCC(=O)c2cc(Br)ccc2N1
label 0
CSC1=NNC(c2ccccc2)=C(c2ccccc2)S1
label 0

Query :: What did this assay record as the result for O=C(O)C(CS)(c1ccccc1)c1ccccc1 ?
Result :: label 0

Query :: Which outcome was assigned to CN(C)c1ccc(/C=N/N=C2\C(=O)Nc3c(Cl)cc(Cl)cc32)cc1 in this test?
Result :: label 1

Query :: What was the test verdict on Oc1ccccc1-c1cc(-c2ccccc2)nc(NCCCCNc2nc(-c3ccccc3)cc(-c3ccccc3O)n2)n1 ?
Result :: label 0

Query :: Assay result, entry c1ccn2c(CCc3nnc4ccccn34)nnc2c1 — outcome?
Result :: label 0

Query :: Which result was noted for this compound in the test: C(=N\N=C\c1ccccc1)/c1ccccc1
Result :: label 0

###

Task for the reader: assign each of the following molecules its reported growth inhibition.
Assay method text: NCI Yeast Anticancer Drug Screen. Data for the cln2 rad14 strain (AID 165);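 further: 0% = growth equal to vehicle treated cultures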
Details: S. cerevisiae cln2 rad14 strain, at 50.0 µM, stronger effect = higher value
The panel holds about 79,000 compounds, 15% with a hit somewhere; the sample as a whole holds those more often.
Give bare numbers, in %.

N#Cc1ccccc1-c1ccccc1/C=C/C(=O)O
11.8
O=C(Nc1cc(C(F)(F)F)ccc1Cl)c1ccccc1F
-9.15

API: the following record is the query input.
Query :: Can you share its growth inhibition? I mean this molecule: O=[N+]([O-])c1ccc(N/N=C/c2ccccc2Cl)cc1
Result :: -1.3

From: PubChem BioAssay (NCI)
